tested on: Streptococcus pneumoniae; experiment: Antibacterial activity against multidrug-resistant Streptococcus pneumoniae 1175 harboring mefA gene by NCCLS method; type: functional

| smi | MIC |
| --- | --- |
| CC[C@H]1OC(=O)[C@H](C)C(=O)[C@H](C)[C@@H](O[C@@H]2O[C@H](C)C[C@H](N(C)C)[C@H]2O)[C@](C)(O)C[C@@H](C)C(=O)[C@H](C)[C@H]2N(C3CN(Cc4c(O)cnc5ncccc45)C3)C(=O)O[C@]12C | ≤ 0.06 µg/mL |
| CC[C@H]1OC(=O)[C@H](C)C(=O)[C@H](C)[C@@H](O[C@@H]2O[C@H](C)C[C@H](N(C)C)[C@H]2O)[C@](C)(O)C[C@@H](C)C(=O)[C@H](C)[C@H]2N(C3CN(Cc4ccnc5ncccc45)C3)C(=O)O[C@]12C | 0.12 µg/mL |
| CC[C@H]1OC(=O)[C@H](C)C(=O)[C@H](C)[C@@H](O[C@@H]2O[C@H](C)C[C@H](N(C)C)[C@H]2O)[C@](C)(O)C[C@@H](C)C(=O)[C@H](C)[C@H]2N(C3CN([C@H](C)c4ccnc5ncccc45)C3)C(=O)O[C@]12C | 0.25 µg/mL |
| CC[C@H]1OC(=O)[C@H](C)C(=O)[C@H](C)[C@@H](O[C@@H]2O[C@H](C)C[C@H](N(C)C)[C@H]2O)[C@](C)(O)C[C@@H](C)C(=O)[C@H](C)[C@H]2N(C3CN(Cc4c(OC)cnc5ncccc45)C3)C(=O)O[C@]12C | ≤ 0.06 µg/mL |
